measuredTarget: EGFR[T790M/C797S/L858R] (Homo sapiens, UniProt P00533, C797S/L858R/T790M)
Construct: purchased Carna Bio
Sequence (P00533 25-1210 T790M/C797S/L858R): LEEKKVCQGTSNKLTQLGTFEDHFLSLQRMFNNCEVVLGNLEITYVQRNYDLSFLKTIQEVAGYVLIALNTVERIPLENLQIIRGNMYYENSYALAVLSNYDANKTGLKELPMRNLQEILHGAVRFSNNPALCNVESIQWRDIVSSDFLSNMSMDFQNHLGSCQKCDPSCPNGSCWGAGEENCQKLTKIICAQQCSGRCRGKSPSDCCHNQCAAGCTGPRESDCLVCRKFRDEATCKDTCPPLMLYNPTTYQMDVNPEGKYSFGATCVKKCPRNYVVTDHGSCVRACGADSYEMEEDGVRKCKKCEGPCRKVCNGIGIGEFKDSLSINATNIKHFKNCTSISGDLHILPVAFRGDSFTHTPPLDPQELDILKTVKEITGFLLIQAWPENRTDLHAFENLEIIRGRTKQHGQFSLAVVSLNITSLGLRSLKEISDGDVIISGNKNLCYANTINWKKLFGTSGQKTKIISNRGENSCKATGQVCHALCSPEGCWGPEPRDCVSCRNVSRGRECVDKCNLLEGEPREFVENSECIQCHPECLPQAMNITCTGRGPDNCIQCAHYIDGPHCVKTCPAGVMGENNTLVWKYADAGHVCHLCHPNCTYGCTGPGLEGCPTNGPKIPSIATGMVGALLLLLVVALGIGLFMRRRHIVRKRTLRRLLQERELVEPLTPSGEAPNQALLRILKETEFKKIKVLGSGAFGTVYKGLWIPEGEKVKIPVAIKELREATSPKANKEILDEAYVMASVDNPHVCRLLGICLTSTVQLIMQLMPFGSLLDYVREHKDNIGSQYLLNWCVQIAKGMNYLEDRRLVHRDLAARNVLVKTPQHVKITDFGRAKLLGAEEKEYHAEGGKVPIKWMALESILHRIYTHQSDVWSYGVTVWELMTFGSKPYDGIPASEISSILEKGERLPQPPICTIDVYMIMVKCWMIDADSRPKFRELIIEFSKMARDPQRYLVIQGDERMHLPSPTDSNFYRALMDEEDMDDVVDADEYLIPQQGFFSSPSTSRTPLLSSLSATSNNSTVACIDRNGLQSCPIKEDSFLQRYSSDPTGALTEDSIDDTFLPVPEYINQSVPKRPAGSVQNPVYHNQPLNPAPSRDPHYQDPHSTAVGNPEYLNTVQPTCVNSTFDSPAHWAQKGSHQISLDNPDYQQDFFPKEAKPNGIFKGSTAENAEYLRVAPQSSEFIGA
methodSummary: Inhibition of EGFR[T790M/C797S/L858R] biochemical enzymatic activity (HTRF)
particulars: EGFR T790M-C797S-L858R, 1 mM ATP, 1 h, room temperature, read-out: IC50 (nM) @T790M- C797S - L858R
Record form. Attribute: log10 IC50. Fill in for each entry.
A value of 2 here means IC50 of 100 in nM, since values are log10.

Which log10 IC50 reading was recorded for the compound CN(C)CCN(C)c1ccc2nc3n(c2c1)C12CCC(CN(CCOc4c(cnn4C)-c4cc(cn(C)c4=O)C(=O)N3)C1)C2 (single isomer, unassigned) [Example A85B] ?
0.49

Which log10 IC50 reading was recorded for the compound Cn1ncc2c1OCCN1CC3CCC(C3)(C1)n1c(nc3ccc(N4CC(N5CCOCC5)C4)cc31)NC(=O)c1cc-2c(=O)n(C)c1 (single isomer, unassigned) [Example A69B] ?
0.48

Which log10 IC50 reading was recorded for the compound CN(C)CCN(C)c1ccc2nc3n(c2c1)C12CCC(CC1)CN(CCOc1c(cnn1C)-c1cc(cn(C)c1=O)C(=O)N3)C2 ?
1.86

Which log10 IC50 reading was recorded for the compound C[C@@H]1CCCOc2c(cnn2C)-c2cc(cn(C)c2=O)C(=O)Nc2nc3ccc(N4CCC5(CCN(C)C5)CC4)cc3n2C1 ?
0.30

Which log10 IC50 reading was recorded for the compound C[C@@H]1CCCOc2c(cnn2C)-c2cc(cn(C)c2=O)C(=O)Nc2nc3ccc(N4CCC5(CN(C)C5)C4)cc3n2C1 ?
0.85

Which log10 IC50 reading was recorded for the compound C[C@@H]1CCCOc2c(cnn2C)-c2cc(cn(C)c2=O)C(=O)Nc2nc3ccc(N4CCNCC4)cc3n2C1 ?
0.86

Which log10 IC50 reading was recorded for the compound CN(C)[C@@H]1CCN(c2ccc3nc4n(c3c2)C23CCC(CN(CCOc5c(cnn5C)-c5cc(cn(C)c5=O)C(=O)N4)C2)C3)C1 (single isomer, unassigned) [Example A66D] ?
0.32

Which log10 IC50 reading was recorded for the compound Cc1cc2cc(n1)-c1cnn(C)c1OCCN1CC3CCC(CC3)(C1)n1c(nc3ccc(N4CCN(C)CC4)cc31)NC2=O ?
1.04

---

Test system: A-431
methodSummary: Cell proliferation GI50, A-431 cells (Table 6)
Type: cell-based
particulars: A-431 cells
recordedEndpoint: GI50 (µM)
Number only, in µM; omit the unit.

Which GI50 reading was recorded for the compound CN(C)C1CN(c2ccc3nc4n(c3c2)C23CCC(CN(CCOc5c(cnn5C)-c5cc(cn(C)c5=O)C(=O)N4)C2)C3)CC1(F)F (single isomer, unassigned) [Example A99B] ?
3.64

Which GI50 reading was recorded for the compound CN1CC2CN(c3ccc4nc5n(c4c3)C34CCC(CN(CCOc6c(cnn6C)-c6cc(cn(C)c6=O)C(=O)N5)C3)C4)CC2C1 (single isomer, unassigned) [Example A68A] ?
5.32

Which GI50 reading was recorded for the compound Cn1ncc2c1OCCN1CC3CCC(C3)(C1)n1c(nc3ccc(N4CCC(N5CC(F)C5)C4)cc31)NC(=O)c1cc-2c(=O)n(C)c1 (single isomer, unassigned) [Example A94B1] ?
1.11

Which GI50 reading was recorded for the compound CN1CCCC12CN(c1ccc3nc4n(c3c1)C13CCC(CN(CCOc5c(cnn5C)-c5cc(cn(C)c5=O)C(=O)N4)C1)C3)C2 (single isomer, unassigned) [Example A76A] ?
7.93

Which GI50 reading was recorded for the compound Cn1ncc2c1OCCN1CC3CCC(C3)(C1)n1c(nc3ccc(N4CCC(N5CC(F)C5)C4)cc31)NC(=O)c1cc-2c(=O)n(C)c1 (single isomer, unassigned) [Example A94B2] ?
1.98

Which GI50 reading was recorded for the compound CN(C)CCCN(C)c1ccc2nc3n(c2c1)C12CCC(CN(CCOc4c(cnn4C)-c4cc(cn(C)c4=O)C(=O)N3)C1)C2 (single isomer, unassigned) [Example A89A] ?
6.39

Which GI50 reading was recorded for the compound Cn1ncc2c1OCCN1CC3CCC(C3)(C1)n1c(nc3ccc(N4CCN(C5CC5)CC4)cc31)NC(=O)c1cc-2c(=O)n(C)c1 (single isomer, unassigned) [Example A83B] ?
1.19

Which GI50 reading was recorded for the compound CN1CCN(c2ccc3c(c2)nc2n3C34CCC(CN(CCOc5c(cnn5C)-c5cc(cn(C)c5=O)C(=O)N2)C3)C4)CC1 (centres unmarked) [Example A60] ?
4.11

Which GI50 reading was recorded for the compound CN1CCN(c2ccc3c(c2)nc2n3C34CCC(CN(CCOc5c(cnn5C)-c5cc(cn(C)c5=O)C(=O)N2)C3)C4)CC1 (centres unmarked) [Example A60B] ?
1.34

Which GI50 reading was recorded for the compound CN1CCC2(C1)CN(c1ccc3nc4n(c3c1)C13CCC(CN(CCOc5c(cnn5C)-c5cc(cn(C)c5=O)C(=O)N4)C1)C3)C2 (single isomer, unassigned) [Example A78A] ?
3.05

Which GI50 reading was recorded for the compound CCN1CCN(c2ccc3nc4n(c3c2)C23CCC(CN(CCOc5c(cnn5C)-c5cc(cn(C)c5=O)C(=O)N4)C2)C3)CC1 (single isomer, unassigned) [Example A107A] ?
2.42
